System: HIV-1 NL 4-3
Assay: HIV-1 infection of C8166 cells (syncytia formation, p24 ELISA) with HIV-1 NL 4-3
Format: cell-based
Design: key: ++, +, (+), (+)− and − represent decreasing numbers of syncitia formed; ++, +, (+), (+)− and − represent decreasing numbers of syncitia formed; ++, +, (+), (+)− and − represent decreasing numbers of syncitia formed; ++, +, (+), (+)− and − represent decreasing numbers of syncitia formed; ++, +, (+), (+)− and − represent decreasing numbers of syncitia formed
Conditions: 0.1 μM; Day 7; C8166 cells
Method: HIV-1 NL 4-3 isolate (Adachi et al., 1986; Barré-Sinoussi et al., 1983) and highly cytopathic Zairian HIV-1 NDK isolate (Ellrodt et al., 1984) was propagated in permissive CEM cells (Nara et al., 1987). […] Samples of 3×10^5/100 μL C8166 cells were preincubated in 96-well microtiter plates in culture medium containing various concentrations of peptide. […] Toxicity was evaluated by daily cell count and trypan-blue exclusion assay. […]
Square brackets hold non-standard residues; d marks the D form. Peptide text beside a SMILES is read from it. Ava = NCCCCC(=O)O
Property name: syncitia formed, Day 7

Please review the following examples before continuing.
>  <Compound>
C[C@H](NC(=O)[C@H](CCCNC(=N)N)NC(=O)CNC(=O)[C@@H]1CCCN1C(=O)CN)C(=O)NCCCCC(=O)O [GPGRA valeric acid, GPGRA-NHCH2CH2CH2CH2COOH] (H-GPGRA[Ava]-OH; N-terminus assumed)

>  <Result>
+

$$$$
>  <Compound>
NCC(=O)N1CCC[C@H]1C(=O)NCC(=O)NCCCCC(=O)O [GPG valeric acid, GPG-NHCH2CH2CH2CH2COOH] (H-GPG[Ava]-OH; N-terminus assumed)

>  <Result>
+

$$$$
>  <Compound>
N=C(N)NCCC[C@H](NC(=O)CNC(=O)[C@@H]1CCCN1C(=O)CN)C(=O)O [GPGR, reference compound] (H-GPGR-OH; N-terminus and C-terminus assumed)

>  <Result>
+

$$$$
>  <Compound>
NCC(=O)N1CCC[C@H]1C(=O)NCC(=O)O [GPG, reference compound] (H-Gly-Pro-Gly-OH)

>  <Result>
+

$$$$

Please examine the following record next.
Request: Requested field: syncitia formed, Day 7. Item: N=C(N)NCCC[C@H](NC(=O)CNC(=O)[C@@H]1CCCN1C(=O)CN)C(=O)NCCCCC(=O)O [GPGR valeric acid, GPGR-NHCH2CH2CH2CH2COOH] (H-GPGR[Ava]-OH; N-terminus assumed)
Result: +

---

Test system: HIV-1 NL 4-3
Experiment: HIV-1 infection of C8166 cells (syncytia formation, p24 ELISA) with HIV-1 NL 4-3
Assay type: cell-based
Set-up: key: ++, +, (+), (+)− and − represent decreasing numbers of syncitia formed; ++, +, (+), (+)− and − represent decreasing numbers of syncitia formed; ++, +, (+), (+)− and − represent decreasing numbers of syncitia formed; ++, +, (+), (+)− and − represent decreasing numbers of syncitia formed; ++, +, (+), (+)− and − represent decreasing numbers of syncitia formed
Conditions: 0.1 μM; Table 6
Square brackets hold non-standard residues; d marks the D form. Peptide text beside a SMILES is read from it. Ava = NCCCCC(=O)O
Property name: Day 5 syncitia formed

>  <Molecule>
N=C(N)NCCC[C@H](NC(=O)CNC(=O)[C@@H]1CCCN1C(=O)CN)C(=O)O [GPGR, reference compound] (H-GPGR-OH; N-terminus and C-terminus assumed)

>  <Study system>
HIV-1 NL 4-3

>  <Property name>
Day 5 syncitia formed

>  <Result>
(+)

$$$$
>  <Molecule>
C[C@H](NC(=O)[C@H](CCCNC(=N)N)NC(=O)CNC(=O)[C@@H]1CCCN1C(=O)CN)C(=O)NCCCCC(=O)O [GPGRA valeric acid, GPGRA-NHCH2CH2CH2CH2COOH] (H-GPGRA[Ava]-OH; N-terminus assumed)

>  <Study system>
HIV-1 NL 4-3

>  <Property name>
Day 5 syncitia formed

>  <Result>
(+)

$$$$
>  <Molecule>
NCC(=O)N1CCC[C@H]1C(=O)NCC(=O)O [GPG, reference compound] (H-Gly-Pro-Gly-OH)

>  <Study system>
HIV-1 NL 4-3

>  <Property name>
Day 5 syncitia formed

>  <Result>
−

$$$$
>  <Molecule>
C[C@H](NC(=O)[C@H](CCCNC(=N)N)NC(=O)CNC(=O)[C@@H]1CCCN1C(=O)CN)C(=O)N[C@@H](Cc1ccccc1)C(=O)NCCCCC(=O)O [SPC3 monomer valeric acid, GPGRAF-NHCH2CH2CH2CH2COOH] (H-GPGRAF[Ava]-OH; N-terminus assumed)

>  <Study system>
HIV-1 NL 4-3

>  <Property name>
Day 5 syncitia formed

>  <Result>
(+)

$$$$

Batch: Day 5 syncitia formed for all items listed.
1. N=C(N)NCCC[C@H](NC(=O)CNC(=O)[C@@H]1CCCN1C(=O)CN)C(=O)NCCCCC(=O)O [GPGR valeric acid, GPGR-NHCH2CH2CH2CH2COOH] (H-GPGR[Ava]-OH; N-terminus assumed)
2. NCC(=O)N1CCC[C@H]1C(=O)NCC(=O)NCCCCC(=O)O [GPG valeric acid, GPG-NHCH2CH2CH2CH2COOH] (H-GPG[Ava]-OH; N-terminus assumed)

Result:
(+)
−
